These entries and their values trace back to paper PMC4266920.

- STUDY_TARGET: EcNFeoB (GTPase domain of Escherichia coli FeoB) (Escherichia coli, UniProt P33650, T151A)
- Construct: soluble N-terminal GTPase domain, residues 1-270; GST fusion (pGEX-4T-1) in E. coli BL21(DE3), GST removed by thrombin, size exclusion; an alternate S150A-TEV construct (TEV-cleaved) was also made
- RUN_DESCRIPTION: isothermal titration calorimetry, one-site model
- Type: binding
- MEASUREMENT_SETUP: read-out: Kd^** (μM) GDP
PROPERTY_LABEL: Kd (µM)

- Nc1nc2c(ncn2[C@@H]2O[C@H](COP(=O)(O)OP(=O)(O)O)[C@@H](O)[C@H]2O)c(=O)[nH]1 [GDP]: 33

----------
- STUDY_TARGET: EcNFeoB (GTPase domain of Escherichia coli FeoB) (Escherichia coli, UniProt P33650, G153A)
- Construct: soluble N-terminal GTPase domain, residues 1-270; GST fusion (pGEX-4T-1) in E. coli BL21(DE3), GST removed by thrombin, size exclusion; an alternate S150A-TEV construct (TEV-cleaved) was also made
- RUN_DESCRIPTION: isothermal titration calorimetry, one-site model
- Format: binding
- MEASUREMENT_SETUP: read-out: Kd^** (μM) GDP
PROPERTY_LABEL: Kd (µM)

- Nc1nc2c(ncn2[C@@H]2O[C@H](COP(=O)(O)OP(=O)(O)O)[C@@H](O)[C@H]2O)c(=O)[nH]1 [GDP]: 11

----------
- STUDY_TARGET: EcNFeoB (GTPase domain of Escherichia coli FeoB) (Escherichia coli, UniProt P33650, R154A)
- Construct: soluble N-terminal GTPase domain, residues 1-270; GST fusion (pGEX-4T-1) in E. coli BL21(DE3), GST removed by thrombin, size exclusion; an alternate S150A-TEV construct (TEV-cleaved) was also made
- RUN_DESCRIPTION: stopped-flow fluorescence, koff/kon from kobs versus protein concentration
- Format: binding
- MEASUREMENT_SETUP: 20 mM Tris pH 8.0, 100 mM NaCl, 100 mM MgCl2, 20 °C; labelled compound (mant-GMPPNP; table heading prints GMPPNP)
- Excerpt: stopped-flow fluorescence, koff/kon from kobs versus protein concentration on EcNFeoB (GTPase domain of Escherichia coli FeoB)
PROPERTY_LABEL: Kd

- mant-GMPPNP: 43 µM

----------
- STUDY_TARGET: EcNFeoB (GTPase domain of Escherichia coli FeoB) (Escherichia coli, UniProt P33650, G153A)
- Construct: soluble N-terminal GTPase domain, residues 1-270; GST fusion (pGEX-4T-1) in E. coli BL21(DE3), GST removed by thrombin, size exclusion; an alternate S150A-TEV construct (TEV-cleaved) was also made
- RUN_DESCRIPTION: stopped-flow fluorescence, koff/kon from kobs versus protein concentration
- Format: binding
- MEASUREMENT_SETUP: 20 mM Tris pH 8.0, 100 mM NaCl, 100 mM MgCl2, 20 °C; labelled compound (mant-GMPPNP; table heading prints GMPPNP)
PROPERTY_LABEL: Kd (µM)

* mant-GMPPNP | 17

----------
- STUDY_TARGET: EcNFeoB (GTPase domain of Escherichia coli FeoB) (Escherichia coli, UniProt P33650, R152A)
- Construct: soluble N-terminal GTPase domain, residues 1-270; GST fusion (pGEX-4T-1) in E. coli BL21(DE3), GST removed by thrombin, size exclusion; an alternate S150A-TEV construct (TEV-cleaved) was also made
- RUN_DESCRIPTION: isothermal titration calorimetry, one-site model
- Format: binding
- MEASUREMENT_SETUP: read-out: Kd^** (μM) GDP
PROPERTY_LABEL: Kd (µM)

• Nc1nc2c(ncn2[C@@H]2O[C@H](COP(=O)(O)OP(=O)(O)O)[C@@H](O)[C@H]2O)c(=O)[nH]1 = 8

----------
- STUDY_TARGET: EcNFeoB (GTPase domain of Escherichia coli FeoB) (Escherichia coli, UniProt P33650, R152A)
- Construct: soluble N-terminal GTPase domain, residues 1-270; GST fusion (pGEX-4T-1) in E. coli BL21(DE3), GST removed by thrombin, size exclusion; an alternate S150A-TEV construct (TEV-cleaved) was also made
- RUN_DESCRIPTION: stopped-flow fluorescence, koff/kon from kobs versus protein concentration
- Format: binding
- MEASUREMENT_SETUP: 20 mM Tris pH 8.0, 100 mM NaCl, 100 mM MgCl2, 20 °C; labelled compound (mant-GMPPNP; table heading prints GMPPNP)
PROPERTY_LABEL: Kd (µM)

* mant-GMPPNP | 23
